Across several publications, the following IC50 results were reported for Alpha-glucosidase MAL12 (Saccharomyces cerevisiae S288c, UniProt P53341).

Known IC50 results, listed for orientation:
COc1cc(-c2c(OC)cc(-c3ccc(O)cc3)c(OC)c2O)ccc1OCC=C(C)C ... 152 µM
CCCCNC(=O)Nc1ccccc1-c1nc2ccccc2[nH]1 ... 29 µM
c1ccc2c(c1)COC(c1c[nH]c3ccccc13)N2 (centres unmarked) ... 32 µM

Dear reader, for each entry below, please note its IC50.
1. COc1cc(-c2ccccc2)c(OC)c(O)c1-c1ccc(O)c(CC=C(C)C)c1
2. CC1(C)CC[C@]2(C(=O)O)CC[C@]3(C)C(=CCC4[C@@]5(C)CC/C(=N\OC(=O)c6ccccc6)C(C)(C)C5CC[C@]43C)C2C1 (some centres unmarked)

A.
["34.4 µM", "0.67 µM"]

---

Field: pIC50. System: Alpha-glucosidase MAL12 (Saccharomyces cerevisiae S288c). Provenance: assorted publications.
Give bare numbers, as −log10 of the molar value.

Example cases with answers are listed next.
COc1cc(-c2ccccc2)c(OC)c(O)c1-c1ccc(O)cc1 ... 3.89
COc1cc(-c2ccc(O)cc2)c(OC)c(O)c1-c1ccccc1 ... 3.62

Value sought for every listed compound: pIC50.
1. O=C(Nc1ccc(NC(=O)Nc2ccccc2-c2nc3ccccc3[nH]2)cc1)Nc1ccccc1-c1nc2ccccc2[nH]1
2. CC1(C)CC[C@]2(C(=O)O)CC[C@]3(C)C(=CCC4[C@@]5(C)CC/C(=N\OC(=O)c6ccc(F)cc6)C(C)(C)C5CC[C@]43C)C2C1 (stereo partly shown)

A.
[4.64, 5.71]

---

Note to self: these compounds have IC50 reported for Alpha-glucosidase MAL12 (Saccharomyces cerevisiae S288c, UniProt P53341) in various publications.
Binary call on IC50 with cut-off 3 µM: strictly below means 1, and equality or higher means 0.

Clc1ccc2c(c1)NC(c1c[nH]c3ccccc13)OC2 (stereo not shown) ... 0
Clc1ccc2c(c1)COC(c1c(-c3ccccc3)[nH]c3ccccc13)N2 (stereo not shown) ... 0
Cc1[nH]c2ccccc2c1C1Nc2ccccc2CO1 (stereo not shown) ... 0

Q. API: query returns whether the compound falls strictly under 3 µM in IC50. Query: COc1cc(-c2c(OC)cc(-c3ccccc3)c(OC)c2O)ccc1OCC=C(C)C
A. 0

Q. Strictly below 3 µM in IC50? CC1(C)CC[C@]2(C(=O)O)CC[C@]3(C)C(=CCC4[C@@]5(C)CC/C(=N\OC(=O)c6ccc(Cl)cc6)C(C)(C)C5CC[C@]43C)C2C1 (stereo partly shown)
A. 1

---

pIC50: −log10 of the molar value.
pIC50 for Alpha-glucosidase MAL12 (Saccharomyces cerevisiae S288c, UniProt P53341) - collated from the literature.
Returns Yes if the recorded pIC50 is greater than or equal to 5, and No otherwise.

Q. API: above_or_equal(metric=pIC50, cutoff=5) for item COc1cc(-c2ccc(OC(C)=O)cc2)c(OC)c(OC(C)=O)c1-c1ccc(OC(C)=O)c(OC(C)=O)c1
A. No

Q. Test whether the compound O=C(CSc1nc2ccccc2cc1-c1nc2ccccc2[nH]1)Nc1ccc2ccccc2c1 records pIC50 of 5 or higher.
A. No

Q. Assess whether reported pIC50 for CC1(C)CC[C@]2(C(=O)O)CC[C@]3(C)C(=CCC4[C@@]5(C)CC/C(=N\OC(=O)c6ccc(Br)cc6)C(C)(C)C5CC[C@]43C)C2C1 (some centres unmarked) sits at 5 or higher.
A. Yes

Q. Please indicate if the recorded pIC50 for O=C(Nc1ccccc1-c1nc2ccccc2[nH]1)Nc1cccc2ccccc12 meets or exceeds 5.
A. No
